system: TNFα-FL/Gaussia Luciferase; assay: Dox Induced TNFα-FL-Gluc Assay; type: cell-based; settings: ratio of TNFaFLGluc IC50 to PD1ssGluc IC50
recorded metric: 24 hr Dox Inducible TNFaFLGluc 293FRT/TO: TNF/PD1
Answer using only a numeral; do not append any unit.

Please review the following examples before continuing.
CC(=O)N1CCC(Oc2ccc(N3CCC[C@@H]3c3csc(NC(=O)c4cccn4Cc4ccnc(F)c4)n3)c(C#N)c2)CC1 [Compound A133] | 14.6
O=C(Nc1nc([C@H]2CCCN2c2ccc(OC3CCNCC3F)cc2)cs1)c1cccn1Cc1ccnc(F)c1 (some centres unmarked) [Compound A107] | 14.2
Cc1cc(Cn2cccc2C(=O)Nc2nc([C@H]3CCCN3c3ccccc3)cs2)ccn1 [Compound A52] | 11.9
CC(=O)N1CCC(Oc2ccc(N3CCC[C@@H]3c3csc(NC(=O)c4cccn4Cc4ccnc(F)c4)n3)cc2)CC1 [Compound A62] | 16.7

Value (24 hr Dox Inducible TNFaFLGluc 293FRT/TO: TNF/PD1, TNFα-FL/Gaussia Luciferase) for record CC(=O)N[C@H](C)c1ccc(N2CCC[C@@H]2c2csc(NC(=O)c3cccn3Cc3ccnc(F)c3)n2)cc1 [Compound A70] = 18

###

system: TNFα-FL/Gaussia Luciferase; assay: Dox Induced TNFα-FL-Gluc Assay; type: cell-based; conditions: ratio of TNFaFLGluc IC50 to PD1ssGluc IC50
recorded metric: 24 hr Dox Inducible TNFaFLGluc 293FRT/TO: TNF/PD1
Answer using only a numeral; do not append any unit.

CC(=O)Nc1ccc(N2CCC[C@@H]2c2csc(NC(=O)c3cccn3Cc3ccnc(F)c3)n2)cc1 | 19

Alright, here's another molecule for you.
Value (24 hr Dox Inducible TNFaFLGluc 293FRT/TO: TNF/PD1, TNFα-FL/Gaussia Luciferase) for record "Cc1c(/C=C/c2csc(NC(=O)c3cccn3Cc3ccncc3)n2)ncn1C(C)C" = 952

###

assay: Liver Microsome Stability Assay (monkey); settings: monkey liver microsomes, with NADPH, 1.0 uM compound
Liver Microsome Stability (Multiple Species): Monkey - % Remaining after 30 min w/NADPH strictly less than 0.6% = Satisfied. Otherwise Not satisfied.

Example entries begin here.
O=C(Nc1nc(/C=C/c2cn3c(n2)CCC3)cs1)c1cccn1Cc1ccnc(F)c1 | Not satisfied
Cc1ccnc(N2CCC[C@@H]2c2csc(NC(=O)c3cccn3Cc3ccncc3)n2)c1 | Satisfied
COC(=O)Nc1ccc(N2CCC[C@@H]2c2csc(NC(=O)c3cc(C)cn3Cc3ccnc(F)c3)n2)cc1 | Not satisfied

Lookup: # strict comparison: is reported Liver Microsome Stability (Multiple Species): Monkey - % Remaining after 30 min w/NADPH < 0.6%? input = "CC(C)n1cnc(-c2cccc(-c3csc(NC(=O)c4cccn4Cc4ccnc(F)c4)n3)c2)c1"
Found: Satisfied

Lookup: # strict comparison: is reported Liver Microsome Stability (Multiple Species): Monkey - % Remaining after 30 min w/NADPH < 0.6%? input = "CC(=O)NCc1ccc(N2CCC[C@@H]2c2csc(NC(=O)c3cccn3CC3CCOCC3)n2)cc1"
Found: Satisfied

Lookup: # strict comparison: is reported Liver Microsome Stability (Multiple Species): Monkey - % Remaining after 30 min w/NADPH < 0.6%? input = "O=C(Nc1nc([C@H]2CCCN2c2ccc(OC3COC3)cc2)cs1)c1cccn1Cc1ccncc1"
Found: Satisfied

Lookup: # strict comparison: is reported Liver Microsome Stability (Multiple Species): Monkey - % Remaining after 30 min w/NADPH < 0.6%? input = "Cc1c(/C=C/c2csc(NC(=O)c3cccn3Cc3ccnc(F)c3)n2)ncn1C(C)C"
Found: Satisfied

###

assay: Liver Microsome Stability Assay (human); details: human liver microsomes, with NADPH, 1.0 uM compound
// reported Liver Microsome Stability (Multiple Species): Human - % Remaining after 30 min w/NADPH per item
Report the figure in % without appending any unit label.

Please review the following examples before continuing.
O=C(Nc1nc([C@H]2CCCN2c2ccccc2)cs1)c1cccn1CCCCc1nnn[nH]1 [Compound C4] | 96.7
CC(C)c1nc(/C=C/c2csc(NC(=O)c3cccn3Cc3ccnc(F)c3)n2)cn1C [Compound B67] | 0.16
CC(=O)Nc1ccc(N2CCC[C@@H]2c2csc(NC(=O)c3cc(C)cn3Cc3ccnc(F)c3)n2)cc1 [Compound A164] | 36.5
N#CCc1ccccc1Cn1cccc1C(=O)Nc1nc([C@H]2CCCN2c2ccccc2)cs1 [Compound C93] | 3.12
NC(=O)Cn1cnc(/C=C/c2csc(NC(=O)c3cccn3Cc3ccnc(F)c3)n2)c1 [Compound B115] | 12.8

Lab note: CC(C)n1ccc(/C=C/c2csc(NC(=O)c3cccn3Cc3ccnc(F)c3)n2)n1 [Compound B74] gave Liver Microsome Stability (Multiple Species): Human - % Remaining after 30 min w/NADPH of 0.44

Lab note: N#Cc1ccc(Cn2cccc2C(=O)Nc2nc([C@H]3CCCN3c3ccccc3)cs2)cc1 [Compound C50] gave Liver Microsome Stability (Multiple Species): Human - % Remaining after 30 min w/NADPH of 33.8

Lab note: CC(=O)N[C@@H](C)c1ccc(N2CCC[C@@H]2c2csc(NC(=O)c3cccn3Cc3ccnc(F)c3)n2)cc1 [Compound A69] gave Liver Microsome Stability (Multiple Species): Human - % Remaining after 30 min w/NADPH of 1.43

###

assay: Liver Microsome Stability Assay (monkey); conditions: monkey liver microsomes, with NADPH, 1.0 uM compound
recorded metric: Liver Microsome Stability (Multiple Species): Monkey - % Remaining after 30 min w/NADPH (%)
Report the figure in % without appending any unit label.

O=C(Nc1nc([C@H]2CCCN2c2ccccc2)cs1)c1cccn1-c1csc2cnccc12 [Compound C115] | 0.66
CC(C)n1cnc(/C=C/c2csc(NC(=O)c3cccn3CC3CCOCC3)n2)c1 [Compound D7] | 0.07
CC(=O)N1CCC(Oc2cc(F)c(N3CCC[C@@H]3c3csc(NC(=O)c4cccn4Cc4ccnc(F)c4)n3)c(F)c2)CC1 [Compound A105] | 0.98

Alright, here's another compound for you.
Lab note: O=C(Nc1nc([C@H]2CCCN2c2ccc(OC3CS(=O)(=O)C3)cc2)cs1)c1cccn1Cc1ccnc(F)c1 [Compound A158] gave Liver Microsome Stability (Multiple Species): Monkey - % Remaining after 30 min w/NADPH of 1.84

###

Tested on: multiple myeloma cell line NCI-H929
Assay: H929 Cell Viability Assay
Type: cell-based, human
Settings: Homo sapiens, NCI-H929, 48 h, NCI-H929 cells, Celltiter-Glo
Procedure: The human multiple myeloma cell line NCI-H929 was cultured in Advanced RPMI 1640 media (Gibco®) supplemented with 6% fetal bovine serum, 2 mM Glutamine, and 1× Penicillin/Streptomycin. […] After 48 hours, Celltiter-Glo® (Promega) was added to each well and luciferase signal was quantified using Tecan Infinite M1000 Pro for cell viability determination. […]
recorded metric: EC50 (µM)
Report the figure in µM without appending any unit label.

Please review the following examples before continuing.
NC(=O)N1CCC(Oc2ccc(N3CCC[C@@H]3c3csc(NC(=O)c4cccn4Cc4ccnc(F)c4)n3)cc2)CC1 | 0.692
O=C(Nc1ccc(N2CCC[C@@H]2c2csc(NC(=O)c3cccn3Cc3ccnc(F)c3)n2)cc1)OC1CNC1 | 0.525
Cc1cn(C(C)C)nc1/C=C/c1csc(NC(=O)c2cccn2Cc2ccncc2)n1 | 16.2
O=C(Nc1nc([C@H]2CCCN2c2ccccc2)cs1)c1cccn1CC1=CCOCC1 | 23.3
Cc1cc(C(=O)Nc2nc([C@H]3CCCN3c3ccc(OC4CCN(C(N)=O)CC4)cc3)cs2)n(Cc2ccnc(F)c2)c1 | 2.21
Cc1ccc(N2CCC[C@@H]2c2csc(NC(=O)c3cccn3Cc3ccncc3)n2)nc1 | 0.126
CO[C@@H](CC#N)Cn1cccc1C(=O)Nc1nc([C@H]2CCCN2c2ccccc2)cs1 | 25
O=C(Nc1nc([C@H]2CCCN2c2ccc(C(F)(F)F)cc2)cs1)c1cccn1Cc1ccnc(F)c1 | 0.152
CC(=O)N1CCCCC1c1ccc(N2CCC[C@@H]2c2csc(NC(=O)c3cccn3Cc3ccncc3)n2)cc1 (some centres unmarked) | 3.34
O=C(Nc1nc(/C=C/c2coc(C3CCCCC3)n2)cs1)c1cccn1Cc1ccncc1 | 10.2

Lab note: "CC(=O)N[C@H](C)c1ccc(N2CCC[C@@H]2c2csc(NC(=O)c3cccn3Cc3ccnc(F)c3)n2)cc1" gave EC50 of 0.385

Lab note: "O=C(Nc1nc([C@H]2CCCN2c2ccccc2)cs1)c1cccn1Cc1ccc(=O)[nH]c1" gave EC50 of 24.3

Lab note: "CCn1cnc(/C=C/c2csc(NC(=O)c3cccn3Cc3ccnc(F)c3)n2)c1C" gave EC50 of 16.9

Lab note: "CCc1ccc(N2CCC[C@@H]2c2csc(NC(=O)c3cccn3CC3CCOCC3)n2)cc1" gave EC50 of 1.78

Lab note: N#CC1CC1Cn1cccc1C(=O)Nc1nc([C@H]2CCCN2c2ccccc2)cs1 (some centres unmarked) gave EC50 of 11.8

Lab note: "CC(C)c1c(/C=C/c2csc(NC(=O)c3cccn3Cc3ccnc(F)c3)n2)ncn1C" gave EC50 of 16.9

Lab note: "O=C(Nc1nc(/C=C/c2ccc3c(n2)CCCC3)cs1)c1cccn1Cc1ccnc(F)c1" gave EC50 of 12.8

Lab note: "Cc1cnn(C(C)C)c1/C=C/c1csc(NC(=O)c2cccn2Cc2ccnc(F)c2)n1" gave EC50 of 6.85

Lab note: "O=C(Nc1nc([C@H]2CCCN2c2ccccc2)cs1)c1cccn1CCC1COC1" gave EC50 of 21.9
